assayed system: UniProt:P51812
Sequence (P51812 whole entry): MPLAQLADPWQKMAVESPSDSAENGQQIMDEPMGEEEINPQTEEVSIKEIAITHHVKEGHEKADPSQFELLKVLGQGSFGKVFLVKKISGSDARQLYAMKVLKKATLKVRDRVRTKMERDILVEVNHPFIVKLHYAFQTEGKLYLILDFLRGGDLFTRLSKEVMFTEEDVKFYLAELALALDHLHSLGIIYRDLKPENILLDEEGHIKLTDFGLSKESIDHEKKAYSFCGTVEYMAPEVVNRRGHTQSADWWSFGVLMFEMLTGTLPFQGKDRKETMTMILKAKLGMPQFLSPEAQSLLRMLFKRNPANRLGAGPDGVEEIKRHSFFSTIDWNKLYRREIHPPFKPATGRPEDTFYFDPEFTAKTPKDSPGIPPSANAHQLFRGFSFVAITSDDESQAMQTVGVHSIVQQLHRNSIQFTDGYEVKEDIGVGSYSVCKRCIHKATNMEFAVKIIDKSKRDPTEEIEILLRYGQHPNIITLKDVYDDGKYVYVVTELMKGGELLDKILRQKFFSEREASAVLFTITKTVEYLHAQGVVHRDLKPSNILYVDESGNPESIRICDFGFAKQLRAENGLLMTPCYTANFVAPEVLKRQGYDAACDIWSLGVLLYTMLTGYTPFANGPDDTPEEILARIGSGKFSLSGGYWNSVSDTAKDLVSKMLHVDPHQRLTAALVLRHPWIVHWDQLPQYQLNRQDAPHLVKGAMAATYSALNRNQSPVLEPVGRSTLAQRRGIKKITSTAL
metric: ΔTm (°C)
Write the value in °C as a bare number.

Looking up O=Nc1c(-c2c(O)[nH]c3ccccc23)[nH]c2ccccc12 , I see its ΔTm listed as 5.5

Looking up Ic1cccc(CSc2nnc(-c3ccncc3)o2)c1 , I see its ΔTm listed as -0.6

Looking up CCOc1ccc(/C=C2/SC(=O)N(CCN)C2=O)cc1 [HIAZOLIDINEDIONE1] , I see its ΔTm listed as 0

Looking up CC(C)c1cc(/C=C(\C#N)C(=O)NCCCc2ccccc2)cc(C(C)C)c1O , I see its ΔTm listed as 1

Looking up CC(C)n1cnc2/c(=N/c3cccc(Cl)c3)nc(NCCO)[nH]c21 , I see its ΔTm listed as 4.6

Looking up COc1ccc(CNc2nc(N(CCO)CCO)nc3c2ncn3C(C)C)cc1 , I see its ΔTm listed as 1.3
